- Test system: ATP;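 further: ATP exposure 15 min at 22 °C before imaging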
- Test method notes: switch fluorescence ratio, 500 uM ATP over buffer (Cy3 cluster intensity, sum of 5 cycles each) (fold (ratio)); higher = stronger signal-on switching upon ATP binding; sequences stand for … in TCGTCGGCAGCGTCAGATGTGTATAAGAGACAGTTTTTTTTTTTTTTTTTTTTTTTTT…TC
- Condition description: aptamer strand: ATP DNA aptamer (quencher-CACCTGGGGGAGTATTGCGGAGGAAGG + anchor), 100 nM annealed; ATP concentration: 500 uM
Reported values of switch fluorescence ratio for individual entries
Form: value (number only, do not type unit).

Here are 4 sequences together with their reported answers.
1) AAATAGGTGG : 0.996
2) GATGCGGTTA : 0.988
3) TACTTAAGTG : 1.02
4) TGCAATTCGT : 1.13

Ask: Can you share its switch fluorescence ratio? I mean this sequence: `GTGTGTGGCA`
Reply: 1.03

Ask: Try this sequence next: `ATAGACAGTG`
Reply: 1.02

Ask: Try this sequence next: `AGAAATGACG`
Reply: 1

Ask: Try this sequence next: `TCTACTAT`
Reply: 1.06

Ask: Try this sequence next: `CATTTTGTTT`
Reply: 0.998

Ask: Try this sequence next: `TTAGGAACAT`
Reply: 1.2

Ask: Try this sequence next: `TGGTATTATT`
Reply: 0.998

Ask: Try this sequence next: `ACCAGGACTA`
Reply: 1.04

Ask: Try this sequence next: `AATCTTGAGG`
Reply: 1.01

Ask: Try this sequence next: `ATCCGGTTAC`
Reply: 5.17

Ask: Try this sequence next: `AAAGGATGAT`
Reply: 0.998

Ask: Try this sequence next: `TAATGGGGAC`
Reply: 0.967

Ask: Try this sequence next: `AGATTAGGGA`
Reply: 0.975

Ask: Try this sequence next: `CGTCTTATTA`
Reply: 0.983

Ask: Try this sequence next: `CGCATCGTAA`
Reply: 1.07

Ask: Try this sequence next: `ATTTCGGTCT`
Reply: 0.989

Ask: Try this sequence next: `AATAGCTAGT`
Reply: 0.993
